System: COLO 205
assay_protocol: NCI tumour cell line growth inhibition, 48 h
The source made the active and inactive calls. Rule as the data show it: active = GI50 up to about 1.1 µM and inactive = higher.
outcome_measure: GI50

The examples below pair each entry with its known result.
[[record]]
compound = "CCOC(=O)N1[C@@H]2CCC[C@@H]2C(=O)[C@@H]2CCC[C@@H]21"
outcome_measure = "GI50"
value_measured = "> 100 µM (inactive)"

[[record]]
compound = "Fc1c(F)c(C(F)(F)F)c(F)c(F)c1N/N=C/c1cn(Cc2ccccc2)c2ccccc12"
outcome_measure = "GI50"
value_measured = "13.5 µM (inactive)"

[[record]]
compound = "CCOC(=O)CCC(NC(=O)c1ccc(CNc2nc3ccccc3nc2C(=O)OCC)cc1)C(=O)OCC (centres undefined)"
outcome_measure = "GI50"
value_measured = "> 100 µM (inactive)"


Below is a list of compounds. For each, state its recorded GI50.
1. CCOC(=O)C1(C(=O)OCC)CC=C(C)CC12C(=O)Nc1ccccc12 (centres undefined)
2. CCOc1cc2c(cc1O)CC[C@@H]1[C@@H]2CC[C@]2(C)C(OS(=O)OC3CC[C@@H]4[C@H]5CCc6cc(O)c(OCC)cc6[C@@H]5CC[C@@]34C)CC[C@@H]12 (some centres undefined)
3. COc1ccc(/C=N/NC(=O)C2=C(N)N(c3ccccc3)C(=C(C#N)C#N)S2)cc1

1. > 100 µM (inactive)
2. 23.1 µM (inactive)
3. > 100 µM (inactive)
